System: NCI-H23 lung
Assay: NCI-60 one-dose screen, 48 h (100 = growth as untreated, 0 = no growth, -100 = all killed)
Conditions: 10 µM unless noted
This is part of a sample that, as a whole, favours compounds with a hit. Of some 83,000 tested, about 20% had one in any assay.
Assign growth to each entry below.
Answers are plain numbers, in %.

In the examples that follow, each entry is paired with its recorded growth.
compound: O=S(=O)(NCCCNc1cc(-c2cn(-c3ccccc3)nc2-c2cccc(O)c2)ccn1)c1ccc(Cl)cc1
test.target: NCI-H23 lung
growth (%): 33.1
//
compound: CCOC(=O)[C@H](CSSc1ncnc2cc[nH]c12)NC(=O)[C@@H](C)c1ccc2cc(OC)ccc2c1
test.target: NCI-H23 lung
growth (%): 19.9
//
compound: Cc1ccc(S(=O)(=O)NCCCNc2nccc(-c3c(-c4ccccc4)nc4sccn34)n2)cc1
test.target: NCI-H23 lung
growth (%): 76.2
//
compound: CC(C)(C)OC(=O)N[C@@H](Cc1ccccc1)C(=O)N(Cc1ccccc1)C1(C(=O)NCc2ccccc2)CCN(Cc2ccccc2)CC1
test.target: NCI-H23 lung
growth (%): 49.3
//
compound: O=C1CCCCC=C1C[N+](=O)[O-]
test.target: NCI-H23 lung
growth (%): 91.5

Here are 4 compounds. What values of growth were reported for them?
1. COc1cc(Cn2c(SCC(=O)Nc3cc(OC)c(OC)c(OC)c3)nc3ccccc3c2=O)cc(OC)c1OC
2. CC(Cc1nnc(SCC(=O)Nc2ccc(I)cc2)n1N)c1ccccc1 (stereo unspecified)
3. CC(Br)C(Br)c1cc2c(cc1Br)OCO2 (stereo unspecified)
4. COC(=O)CCCCCN=Cc1c(O)c(O)c(C(C)C)c2cc(C)c(-c3c(C)cc4c(C(C)C)c(O)c(O)c(C=NCCCCCC(=O)OC)c4c3O)c(O)c12

Resp:
77.1
99.8
96.4
19.3

Here are 2 compounds. What values of growth were reported for them?
1. COc1ccc(-c2nc3sccn3c2-c2ccnc(NCCCNS(=O)(=O)c3ccc4ccccc4c3)n2)cc1
2. CC1Cc2c(N(C)C)ncnc2N(C)c2ccc(O)cc21 (stereo unspecified)

Resp:
64.3
92.8

---

Test system: UACC-62 melanoma
Test: NCI-60 one-dose screen, 48 h
Conditions: 10 µM unless noted
Compounds without any hit were thinned out: in the full panel of roughly 83,000, 20% have a hit. Calls of active or inactive are those of the source. The calls were made as follows: active = growth percent below 10; inactive = the rest.
Allowed answers: yes (1) for active, no (0) for inactive

# example entries with known answers
molecule: O=S(=O)(NCCCNc1cc(-c2cn(-c3ccccc3)nc2-c2cccc(O)c2)ccn1)c1cccc(F)c1
answer.label: no (0)
--
molecule: COc1ccc(C(=O)/C=C/c2cc(C(=O)c3cc(OC)c(OC)c(OC)c3)ccc2OC)cc1
answer.label: no (0)
--
molecule: O=C1N=C(c2c(-c3[nH]c(=O)c4ccc(Br)cc4c3O)c(O)c3ccccc3c2O)C(=O)c2cc(Br)ccc21
answer.label: yes (1)
--
molecule: CC1=C(C#N)C(C)(C)C(C#N)=C(C)N1
answer.label: no (0)
--
molecule: CCCCCCCCCCCCCCCCCCOc1cccc(CCOP(=O)(O)OCC[N+](C)(C)C)c1
answer.label: no (0)
--
molecule: CCN(Cc1ccc(CN(CC)C(=O)C(Cl)(Cl)Cl)cc1)C(=O)C(Cl)(Cl)Cl
answer.label: no (0)
--
molecule: CC(Br)C(Br)c1cc2c(cc1Br)OCO2 (stereo not given)
answer.label: no (0)
--
molecule: CC(=O)Nc1ccc(S(=O)(=O)N2C(=O)CCC2C(=O)Nc2ccccc2)cc1 (stereo not given)
answer.label: no (0)

Req: Identify the outcome logged in this assay for the molecule shown: COc1ccc(C2CC(c3cccs3)=NN2c2ccc(S(=O)(=O)NC(=O)Nc3ccc(C)cc3)cc2)cc1 (stereo not given)
Resp: no (0)

Req: Identify the outcome logged in this assay for the molecule shown: `CCCn1c(=S)sc2c(Cl)nc(C)nc21`
Resp: no (0)

---

Assign growth to each entry below.
System: SK-MEL-2 melanoma
Assay: NCI-60 one-dose screen, 48 h (100 = growth as untreated, 0 = no growth, -100 = all killed)
Conditions: 10 µM unless noted
Compounds without any hit were thinned out: in the full panel of roughly 83,000, 20% have a hit. Calls of active or inactive are those of the source. Rule for the calls: active = growth percent below 10; inactive = the rest.

In the examples that follow, each entry is paired with its recorded growth.
compound: CN1CCN(CCCOc2ccc3nc(Nc4ccc(C(F)(F)F)c(Cl)c4)ccc3c2)CC1
test.target: SK-MEL-2 melanoma
growth: 8.88% (active)
--
compound: COc1ccc(-c2nnc(COc3ccc(NS(=O)(=O)c4ccc(OC)cc4)cc3F)o2)cc1
test.target: SK-MEL-2 melanoma
growth: 68.2% (inactive)
--
compound: NC(N)=NC(N)=Nc1ccccc1-c1ccccc1
test.target: SK-MEL-2 melanoma
growth: 109% (inactive)
--
compound: CC1=NN2C(=NC3=C(CCC/C3=C\c3ccc(Cl)cc3)C2c2ccc(Cl)cc2)S1 (centres undefined)
test.target: SK-MEL-2 melanoma
growth: 86.3% (inactive)

Here are 5 compounds. What values of growth were reported for them?
1. O=C1NC(Cc2c[nH]c3ccccc23)C(=O)N1Cc1ccc(Cl)cc1 (centres undefined)
2. COc1ccc(C2=NN(c3ccc(S(N)(=O)=O)cc3)C(c3cn(-c4ccccc4)nc3-c3ccc(Cl)cc3)C2)cc1 (centres undefined)
3. Cn1c(=O)c2c(nc3n2CCN(CCc2ccc(OCCN4CCOCC4)cc2)C3)n(C)c1=O
4. O=C1CCC/C=C\C[C@H]2C=CC(=O)/C2=C/C[C@H](C/C=C\CC(F)(F)F)O1
5. COc1ccc(C(=O)/C=C/c2cccc([N+](=O)[O-])c2)c(OC)c1

Resp:
1: 66.3% (inactive); 2: 94.7% (inactive); 3: 101% (inactive); 4: -20.9% (active); 5: 72.4% (inactive)

---

Assign growth to each entry below.
Tested on: UACC-62 melanoma
Test: NCI-60 one-dose screen, 48 h (100 = growth as untreated, 0 = no growth, -100 = all killed)
Conditions: 10 µM unless noted
The panel holds about 83,000 compounds, 20% with a hit somewhere; the sample as a whole holds those more often.
Give bare numbers, in %.

In the examples that follow, each entry is paired with its recorded growth.
compound: O=C1CCCCN1CCCCC#Cc1ccccc1C#Cc1ccccn1
readout.units: %
growth: 83.9
//
compound: Cc1cc(C(=O)O)c(N)c(C)n1
readout.units: %
growth: 96.6

Here are 3 compounds. What values of growth were reported for them?
1. CC[C@H](C)[C@@H]1NC(=O)[C@H]([C@@H](C)O)NC(=O)C(Cc2ccccc2)NC(=O)[C@@H]2CCCN2C(=O)C(C(C)C)NC(=O)C(Cc2ccccc2)NC(=O)CNC(=O)[C@@H]2CCCN2C1=O (stereo not given in full)
2. O=C(CCl)NCCNc1nccc(Nc2ccc(S(=O)(=O)Nc3ccccn3)cc2)n1
3. Cc1nc2scc(-c3ccccc3)n2c(=O)c1CCO

Resp:
1: 65.6; 2: 5.42; 3: 97.6

---

System: UACC-62 melanoma
Assay: NCI-60 one-dose screen, 48 h
Conditions: 10 µM unless noted
About 83,000 compounds went through this panel and 20% of them were active in at least one assay; those are over-represented in the sample as a whole. Active and inactive are the calls of the source. The calls were made as follows: active = growth percent below 10; inactive = the rest.
Allowed answers: active, inactive

# example entries with known answers
molecule: O=C1CCC/C=C\C[C@H]2C=CC(=O)/C2=C/C[C@H](C/C=C\CC(F)(F)F)O1
test.target: UACC-62 melanoma
answer.label: active
--
molecule: Nc1cc2c(cc1N)-c1cc(N)c(N)cc1C2
test.target: UACC-62 melanoma
answer.label: inactive
--
molecule: COc1c(NC[C@H]2OC(O)[C@H](O)[C@@H](O)[C@@H]2O)c(=O)c1=O (some centres not stated)
test.target: UACC-62 melanoma
answer.label: inactive
--
molecule: COc1ncc(-c2ccc3ncnc(Nc4cccc(Cl)c4)c3c2)cc1NS(=O)(=O)C1CC1
test.target: UACC-62 melanoma
answer.label: inactive
--
molecule: CC/C=C\C/C=C\C[C@H]1C/C=C2/C(=O)C=C[C@H]2C/C=C\CCC(=O)O1
test.target: UACC-62 melanoma
answer.label: active

Req: Identify the outcome logged in this assay for the molecule shown: `COc1ccc(-c2nc(-c3ccccc3)c(-c3ccccc3)n2C2CC2)cc1OC1CCCCC1`
Resp: inactive

Req: Identify the outcome logged in this assay for the molecule shown: `N=C(N)c1ccc(-c2ccc(-c3ccc(Cl)cc3)o2)nc1`
Resp: active

Req: Identify the outcome logged in this assay for the molecule shown: `C/C(=N\NC(=O)CC#N)c1cc2cc(Cl)ccc2o1`
Resp: inactive

Req: Identify the outcome logged in this assay for the molecule shown: `Cc1cc(N/C=c2\sc3ncnn3c2=O)no1`
Resp: inactive

Req: Identify the outcome logged in this assay for the molecule shown: `NCCSC(c1ccccc1)(c1ccccc1)c1ccccc1`
Resp: inactive

Req: Identify the outcome logged in this assay for the molecule shown: CC1Cc2c(N(C)C)ncnc2N(C)c2ccc(Cl)cc21 (configuration not stated)
Resp: inactive

Req: Identify the outcome logged in this assay for the molecule shown: `COc1ccc(-c2nc(-c3nc4ccc(F)cc4[nH]3)cc3c2[nH]c2ccccc23)cc1`
Resp: inactive

Req: Identify the outcome logged in this assay for the molecule shown: `C=C1C(=O)O[C@H]2[C@H](O)[C@@H](C)CCC/C(C)=C/CC[C@@]3(C)O[C@@H]3C[C@@H]12`
Resp: inactive

Req: Identify the outcome logged in this assay for the molecule shown: CCCCNC(=O)NS(=O)(=O)c1ccc(N2N=C(c3ccc(C)cc3C)CC2c2ccc(OC)cc2)cc1 (configuration not stated)
Resp: inactive

Req: Identify the outcome logged in this assay for the molecule shown: CC(=O)C1CCC(C)=CC1=O (configuration not stated)
Resp: inactive

Req: Identify the outcome logged in this assay for the molecule shown: `COc1ccc2c(c1)C(=O)/C(=C/c1ccc(O)cc1)O2`
Resp: inactive

Req: Identify the outcome logged in this assay for the molecule shown: `CCn1cc(C(=O)O)c(=O)c2cc(F)c(N3CCN(S(=O)(=O)c4c(C)cc(C)cc4C)CC3)cc21`
Resp: inactive

Req: Identify the outcome logged in this assay for the molecule shown: `O=C(CCC(=O)OC1CCCC1)OC1CCCC1`
Resp: inactive
